List of MIC P. aeruginosa ATTC 27853 values.
tested on: P. aeruginosa ATTC 27853; experiment: microbe, parasite or virus in culture; details: ATTC 27853, 18 h
Where a SMILES comes first, the peptide text is derived from it. Bridges are numbered along the chain shown (N, C = ends). [ ]: non-standard residue; d: D form. The star is where a group is joined. Benzoyl(3-Ph) = O=C(c1cccc(-c2ccccc2)c1)*; X1 = CCCCCC1CCC(C(=O)*)CC1; dDab = NCC[C@@H](N)C(=O)O; hSer = N[C@@H](CCO)C(=O)O; Octanoyl = CCCCCCCC(=O)*; Dab = NCC[C@H](N)C(=O)O
Give just the number in µg/mL; leave the unit off.

Completed entries (count: 5):
| compound | u | MIC P. aeruginosa ATTC 27853 |
| --- | --- | --- |
| CCCCCC1CCC(C(=O)N[C@H](C(=O)N[C@H](CCN)C(=O)N[C@H]2CCNC(=O)[C@H]([C@@H](C)O)NC(=O)[C@H](CCN)NC(=O)[C@H](CCN)NC(=O)[C@H](CC(C)C)NC(=O)[C@@H](Cc3ccccc3)NC(=O)[C@H](CCN)NC2=O)[C@@H](C)O)CC1 (stereo partly drawn) [Compound 24] (X1-T[dDab][Dab][Dab][dF]L[Dab][Dab]T; lactam 3-C) | µg/mL | 4 |
| CCCCCCCC(=O)N[C@H](C(=O)N[C@H](CCCCN)C(=O)N[C@H]1CCNC(=O)[C@H]([C@@H](C)O)NC(=O)[C@H](CCN)NC(=O)[C@H](CCN)NC(=O)[C@H](CC(C)C)NC(=O)[C@@H](Cc2ccccc2)NC(=O)[C@H](CCN)NC1=O)[C@@H](C)O [Compound 43] (Octanoyl-T[dK][Dab][Dab][dF]L[Dab][Dab]T; lactam 3-C) | µg/mL | 4 |
| CCCCCCCC(=O)N[C@H](C(=O)N[C@H](Cc1c[nH]cn1)C(=O)N[C@H]1CCNC(=O)[C@H]([C@@H](C)O)NC(=O)[C@H](CCN)NC(=O)[C@H](CCN)NC(=O)[C@H](CC(C)C)NC(=O)[C@@H](Cc2ccccc2)NC(=O)[C@H](CCN)NC1=O)[C@@H](C)O [Compound 48] (Octanoyl-T[dH][Dab][Dab][dF]L[Dab][Dab]T; lactam 3-C) | µg/mL | 16 |
| CCCCCCCC(=O)N[C@@H](CCO)C(=O)N[C@H](CCN)C(=O)N[C@H]1CCNC(=O)[C@H]([C@@H](C)O)NC(=O)[C@H](CCN)NC(=O)[C@H](CCN)NC(=O)[C@H](CC(C)C)NC(=O)[C@@H](Cc2ccccc2)NC(=O)[C@H](CCN)NC1=O [Compound 31] (Octanoyl-[hSer][dDab][Dab][Dab][dF]L[Dab][Dab]T; lactam 3-C) | µg/mL | 2 |
| CCCCCCCC(=O)N[C@@H](CCN)C(=O)N[C@H](C(=O)N[C@H](CCN)C(=O)N[C@H]1CCNC(=O)[C@H]([C@@H](C)O)NC(=O)[C@H](CCN)NC(=O)[C@H](CCN)NC(=O)[C@H](CC(C)C)NC(=O)[C@@H](Cc2ccccc2)NC(=O)[C@H](CCN)NC1=O)[C@@H](C)O [Compound 20] (Octanoyl-[Dab]T[dDab][Dab][Dab][dF]L[Dab][Dab]T; lactam 4-C) | µg/mL | 2 |

For the compound CC(C)C[C@@H]1NC(=O)[C@@H](Cc2ccccc2)NC(=O)[C@H](CCN)NC(=O)[C@@H](NC(=O)[C@H](CCN)NC(=O)[C@@H](NC(=O)c2cccc(-c3ccccc3)c2)[C@@H](C)O)CCNC(=O)[C@H]([C@@H](C)O)NC(=O)[C@H](CCN)NC(=O)[C@H](CCN)NC1=O [Compound 14] ({Benzoyl(3-Ph)}-T[Dab][Dab][Dab][dF]L[Dab][Dab]T; lactam 3-C) , what MIC P. aeruginosa ATTC 27853 is on record?
2
